The values you see were collected from patent US20250361322A1.

- Test system: human Tissue Factor (TF) (human, UniProt P13726 33-295)
- Test name: cell-based or functional assay
Experimental readout: % GM-CSF at 40 nM antibody (%)
Reply numerically in %, unit not repeated.

25G (antibody, human IgG1, V domains shown, Human IgG1; also called antibody designated 25G) VH: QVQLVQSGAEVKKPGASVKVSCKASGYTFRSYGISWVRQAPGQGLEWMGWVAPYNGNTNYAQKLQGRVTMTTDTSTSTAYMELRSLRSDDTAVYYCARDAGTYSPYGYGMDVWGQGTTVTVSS VL: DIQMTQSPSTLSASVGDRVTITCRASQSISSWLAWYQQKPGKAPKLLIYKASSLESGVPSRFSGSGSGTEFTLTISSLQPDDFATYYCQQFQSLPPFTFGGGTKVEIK : 18
25G9 (antibody, human IgG1, V domains shown) VH: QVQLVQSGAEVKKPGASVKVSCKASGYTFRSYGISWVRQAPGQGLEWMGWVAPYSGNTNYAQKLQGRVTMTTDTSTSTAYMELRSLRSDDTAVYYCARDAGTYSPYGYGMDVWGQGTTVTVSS VL: DIQMTQSPSTLSASVGDRVTITCQASQSIDSWLAWYQQKPGKAPKLLIYSASYLESGVPSRFSGSGSGTEFTLTISSLQPDDFATYYCQRFQSLPPFTFGGGTKVEIK : 26
25A (antibody, human IgG1, V domains shown, Human IgG1; also called antibody designated 25A; Antibody Clone 25A) VH: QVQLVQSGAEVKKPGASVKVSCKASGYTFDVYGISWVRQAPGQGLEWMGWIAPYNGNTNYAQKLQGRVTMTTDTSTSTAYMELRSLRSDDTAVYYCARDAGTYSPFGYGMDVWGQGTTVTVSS VL: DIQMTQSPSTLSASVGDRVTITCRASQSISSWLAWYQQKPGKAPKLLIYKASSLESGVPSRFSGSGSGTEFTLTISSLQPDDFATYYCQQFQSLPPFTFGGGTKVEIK : 19

Shifting focus to the binder that follows.
I'd like to know its % GM-CSF at 40 nM antibody. The binder in question is 54E (antibody, human IgG1, V domains shown, Human IgG1; also called antibody designated 54E) VH: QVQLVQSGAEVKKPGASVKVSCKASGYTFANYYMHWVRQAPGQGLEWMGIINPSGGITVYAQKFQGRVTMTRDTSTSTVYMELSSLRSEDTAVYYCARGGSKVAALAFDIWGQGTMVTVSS VL: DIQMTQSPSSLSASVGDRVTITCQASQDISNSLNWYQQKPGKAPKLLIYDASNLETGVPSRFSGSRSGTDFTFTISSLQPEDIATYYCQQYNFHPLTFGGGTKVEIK
5
